Where these numbers come from: patent US20250304677A1

Biological target: T1, human folate receptor alpha expressed on cells (transfected HEK293T, HeLa, MCF7, MDA-MB-231) (human, UniProt P15328 25-234)
T1 construct: HEK293T transiently transfected with human FOLR1; also called native human FRα; cell-expressed human FOLR1
T1 sequence (P15328 25-234 limits assumed): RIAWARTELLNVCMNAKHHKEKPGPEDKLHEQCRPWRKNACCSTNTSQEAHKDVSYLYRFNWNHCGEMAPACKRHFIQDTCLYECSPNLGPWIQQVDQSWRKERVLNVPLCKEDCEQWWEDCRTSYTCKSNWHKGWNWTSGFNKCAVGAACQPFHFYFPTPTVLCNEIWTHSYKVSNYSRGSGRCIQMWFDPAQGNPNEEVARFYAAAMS
Assay: flow cytometry on HeLa cells, anti-Flag detection
endpoint-name: EC50 (nM)

The examples below pair each entry with its known result.
P01500043: P01500001(G28T, I33L, D72E)-FLAG3-HIS6 (VHH, also called P0150043) VHH: EVQLVESGGGLVQPGGSLRLSCAASGSTFSGMLMGWYRQAPGKQRELVATVTSHGTTNYADSVKGRFTISRENAKNTVYLQMNSLRPEDTAVYYCNAHFPGIYWGKGTLVTVSS
2.4
P01500052: P01500001(V51R, D72E)-FLAG3-HIS6 (VHH, also called P0150052) VHH: EVQLVESGGGLVQPGGSLRLSCAASGSGFSGMIMGWYRQAPGKQRELVATRTSHGTTNYADSVKGRFTISRENAKNTVYLQMNSLRPEDTAVYYCNAHFPGIYWGKGTLVTVSS
4.35
P01500056: P01500001(I33L, D72P, N73G)-FLAG3-HIS6 (VHH, also called P0150056) VHH: EVQLVESGGGLVQPGGSLRLSCAASGSGFSGMLMGWYRQAPGKQRELVATVTSHGTTNYADSVKGRFTISRPGAKNTVYLQMNSLRPEDTAVYYCNAHFPGIYWGKGTLVTVSS
2.52
P01500048: P01500001(S30I, D72P)-FLAG3-HIS6 (VHH, also called P0150048) VHH: EVQLVESGGGLVQPGGSLRLSCAASGSGFIGMIMGWYRQAPGKQRELVATVTSHGTTNYADSVKGRFTISRPNAKNTVYLQMNSLRPEDTAVYYCNAHFPGIYWGKGTLVTVSS
2.46
P01500047: P01500001(G26E, G28T, S30I, I33L)-FLAG3-HIS6 (VHH, also called P0150047) VHH: EVQLVESGGGLVQPGGSLRLSCAASESTFIGMLMGWYRQAPGKQRELVATVTSHGTTNYADSVKGRFTISRDNAKNTVYLQMNSLRPEDTAVYYCNAHFPGIYWGKGTLVTVSS
3.19

P. P01500049: P01500001(G26E)-FLAG3-HIS6 (VHH, also called P0150049) VHH: EVQLVESGGGLVQPGGSLRLSCAASESGFSGMIMGWYRQAPGKQRELVATVTSHGTTNYADSVKGRFTISRDNAKNTVYLQMNSLRPEDTAVYYCNAHFPGIYWGKGTLVTVSS
Q. P01500045: P01500001(G26E, I33L)-FLAG3-HIS6 (VHH, also called P0150045) VHH: EVQLVESGGGLVQPGGSLRLSCAASESGFSGMLMGWYRQAPGKQRELVATVTSHGTTNYADSVKGRFTISRDNAKNTVYLQMNSLRPEDTAVYYCNAHFPGIYWGKGTLVTVSS
Pick one, P or Q : lowest reported EC50. Mark your selection by writing its label.
Q

P. P01500044: P01500001(S30I, D72E, N73G)-FLAG3-HIS6 (VHH, also called P0150044) VHH: EVQLVESGGGLVQPGGSLRLSCAASGSGFIGMIMGWYRQAPGKQRELVATVTSHGTTNYADSVKGRFTISREGAKNTVYLQMNSLRPEDTAVYYCNAHFPGIYWGKGTLVTVSS
Q. P01500046: P01500001(N73P)-FLAG3-HIS6 (VHH, also called P0150046) VHH: EVQLVESGGGLVQPGGSLRLSCAASGSGFSGMIMGWYRQAPGKQRELVATVTSHGTTNYADSVKGRFTISRDPAKNTVYLQMNSLRPEDTAVYYCNAHFPGIYWGKGTLVTVSS
Pick one, P or Q : lowest reported EC50. Mark your selection by writing its label.
P
